Values from patent US20240141072A1

Target: T1, biotinylated human DLL3 protein expressed as a human IgG1 fusion protein (human, UniProt Q9NYJ7 27-492, limits assumed, biotinylated)
T1 sequence: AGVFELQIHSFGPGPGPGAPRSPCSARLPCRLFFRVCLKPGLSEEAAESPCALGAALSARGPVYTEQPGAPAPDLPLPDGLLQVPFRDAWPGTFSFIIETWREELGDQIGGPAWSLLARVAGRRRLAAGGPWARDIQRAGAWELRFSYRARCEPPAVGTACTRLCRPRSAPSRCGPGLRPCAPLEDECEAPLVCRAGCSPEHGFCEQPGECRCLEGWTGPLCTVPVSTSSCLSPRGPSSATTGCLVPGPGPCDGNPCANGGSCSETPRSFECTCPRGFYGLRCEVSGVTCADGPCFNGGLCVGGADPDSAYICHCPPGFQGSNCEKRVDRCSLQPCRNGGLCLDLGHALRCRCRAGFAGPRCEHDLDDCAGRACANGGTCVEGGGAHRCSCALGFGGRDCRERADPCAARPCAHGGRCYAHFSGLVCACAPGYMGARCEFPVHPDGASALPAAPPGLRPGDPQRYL
Assay: Octet BLI, single 50 nM
Kd vs 10 nM: less than gives 1.0; not less than gives 0.0.

[[record]]
binder = "3G01 anti-DLL3 trispecific protein (other, not shown: linker 1808, anti-albumin sdAb, linker 1808, anti-CD3 fragment, His6 1819) EVQLVESGGGLVQPGGSLTLSCAASGSSVSFLSMAWYRQAPGKKRELVAGISADGSTLYIDSVKGRFTISRDNAKNSVYLQMNSLRAEDTAVYYCYAYRWTTRYAYWGQGTLVTVSS"
class = 1.0

[[record]]
binder = "1F05 anti-DLL3 trispecific protein (other, not shown: linker 1808, anti-albumin sdAb, linker 1808, anti-CD3 fragment, His6 1819) EVQLVESGGGLVQPGGSLTLSCVASGSTRSINAMGWYRRAPGKQRELVAGISSDGSKVYADSVKGRFTISRDNAKNSVYLQMNSLRAEDTAVYYCYYFHTVSGSSMRYWGQGTLVTVSS"
class = 1.0

[[record]]
binder = "3E011 anti-DLL3 trispecific protein (other, not shown: linker 1808, anti-albumin sdAb, linker 1808, anti-CD3 fragment, His6 1819) EVQLVESGGGLVQPGGSLTLSCAASGSKVSFLSMAWYRQAPGKKRELVAGISRDGSTDYIDSVKGRFTISRDNAKNSVYLQMNSLRAEDTAVYYCYAYRWTTRYTFWGQGTLVTVSS"
class = 0.0

[[record]]
binder = "4G011 anti-DLL3 trispecific protein (other, not shown: linker 1808, anti-albumin sdAb, linker 1808, anti-CD3 fragment, His6 1819) EVQLVESGGGLVQPGGSLTLSCAASGSSVRFLSMAWYRQAPGKKRELVAGISADGSTDYIGSVKGRFTISRDNAKNSVYLQMNSLRAEDTAVYYCYAYRWSTRYTYWGQGTLVTVSS"
class = 1.0

[[record]]
binder = "4E010 anti-DLL3 trispecific protein (other, not shown: linker 1808, anti-albumin sdAb, linker 1808, anti-CD3 fragment, His6 1819) EVQLVESGGGLVQPGGSLTLSCAASGSSVKFLSMAWYRQAPGKKRELVAGISADGSTDYIDSVKGRFTISRDNAKNSVYLQMNSLRAEDTAVYYCYAYRWRTRYTYWGQGTLVTVSS"
class = 1.0

[[record]]
binder = "2H07 anti-DLL3 trispecific protein (other, not shown: linker 1808, anti-albumin sdAb, linker 1808, anti-CD3 fragment, His6 1819) EVQLVESGGGLVQPGGSLTLSCVASGSTSSINAVGWYRRAPGKQRELVAGISSDGSTVYADSVKGRFTISRDNAKNSVYLQMNSLRAEDTAVYYCYYFRTVSGHSMRYWGQGTLVTVSS"
class = 1.0

[[record]]
binder = "3C02 anti-DLL3 trispecific protein (other, not shown: linker 1808, anti-albumin sdAb, linker 1808, anti-CD3 fragment, His6 1819) EVQLVESGGGLVQPGGSLTLSCAASGSSVRFLSMAWYRQAPGKKRELVAGISADGSTIYIDSVKGRFTISRDNAKNSVYLQMNSLRAEDTAVYYCYAYRWRTRYTYWGQGTLVTVSS"
class = 1.0

[[record]]
binder = "4C05 anti-DLL3 trispecific protein (other, not shown: linker 1808, anti-albumin sdAb, linker 1808, anti-CD3 fragment, His6 1819) EVQLVESGGGLVQPGGSLTLSCAASGSSVSNLSMAWYRQAPGKKRELVAGISADGSTAYIDSVKGRFTISRDNAKNSVYLQMNSLRAEDTAVYYCYAYRWTTRRTYWGQGTLVTVSS"
class = 1.0

[[record]]
binder = "2E08 anti-DLL3 trispecific protein (other, not shown: linker 1808, anti-albumin sdAb, linker 1808, anti-CD3 fragment, His6 1819) EVQLVESGGGLVQPGGSLTLSCVASGSRSSINAMGWYRRAPGKQRELVAGISADGSKVYADSVKGRFTISRDNAKNSVYLQMNSLRAEDTAVYYCYYFRTQSGSSMRYWGQGTLVTVSS"
class = 0.0

[[record]]
binder = "1H07 anti-DLL3 trispecific protein (other, not shown: linker 1808, anti-albumin sdAb, linker 1808, anti-CD3 fragment, His6 1819) EVQLVESGGGLVQPGGSLTLSCVASGSTSSINAFGWYRRAPGKQRELVAGISSDGSKVYSDSVKGRFTISRDNAKNSVYLQMNSLRAEDTAVYYCYYFRTVSGSSMRYWGQGTLVTVSS"
class = 1.0

[[record]]
binder = "3A03 anti-DLL3 trispecific protein (other, not shown: linker 1808, anti-albumin sdAb, linker 1808, anti-CD3 fragment, His6 1819) EVQLVESGGGLVQPGGSLTLSCAASGSRVSFLSMAWYRQAPGKKRELVAGISRDGSTDYIDSVKGRFTISRDNAKNSVYLQMNSLRAEDTAVYYCYAYRWTTRRTYWGQGTLVTVSS"
class = 0.0

